I'd appreciate it if you could supply pIC50 values for the items below.
# ASSAYED SYSTEM: Human recombinant LSD1 (Homo sapiens (Human), UniProt O60341)
# PROCEDURE DETAILS: LSD1 in vitro activity assay (LANCE Ultra LSD1 Histone H3-Lysine 4 Demethylase Assay)
# PARTICULARS: LSD1 inhibition
Numbers only, as −log10 of the molar value.

Some entries whose results are on file:
                                   compound   val
0  O=C(OCc1ccccc1)N1CCC(CN[C@@H]2C[C@H]2c2ccc3c(c2)CCN3S(=O)(=O)c2ccccc2)CC1 (relative stereo) [Compound A28]  6.58
1  CC(C)(C)OC(=O)N1CCC(CN[C@@H]2C[C@H]2c2ccc3c(c2)CCN3S(=O)(=O)c2ccccc2)CC1 (relative stereo) [Compound A27]  7.15
2  O=S(=O)(c1ccccc1)N1CCc2cc([C@@H]3C[C@H]3NC3CCNCC3)ccc21 (relative stereo) [Compound A15]  7.64
3  CC(C)(C)OC(=O)c1ccc(CN2CCC(CNC3CC3c3ccc4c(c3)CCN4S(=O)(=O)c3ccccc3)CC2)cc1 (stereo not shown) [Compound A25]  6.27
4  O=C(c1cccc(C(F)(F)F)c1)N1CCc2cc([C@@H]3C[C@H]3NCC3CCNCC3)ccc21 (relative stereo) [Compound A48]  7.59
5  CC(C)(C)OC(=O)N1CCC(C(=O)N[C@@H]2C[C@H]2c2ccc3c(c2)CCN3S(=O)(=O)c2ccccc2)CC1 (relative stereo) [Compound A29]  5.77
6  N[C@@H]1C[C@H]1c1ccc2c(c1)CCN2S(=O)(=O)c1ccccc1 (relative stereo) [Compound A1]  5.75
7  O=C(c1ccc(-c2ccccc2)cc1)N1CCc2cc([C@@H]3C[C@H]3NCC3CCNCC3)ccc21 (relative stereo) [Compound A47]  7.99

Each compound below has a recorded value; state its pIC50.
1. O=C(OCc1ccccc1)N1CCc2cc([C@@H]3C[C@H]3NCC3CCNCC3)ccc21 (relative stereo) [Compound A50]
2. O=C(O)c1ccc(CN2CCC(CN[C@@H]3C[C@H]3c3ccccc3)CC2)cc1 [GSK2879552, GSK-2879552, reference compound]
3. O=C(O)c1ccc(CN2CCC(CNC3CC3c3ccc4c(c3)CCN4S(=O)(=O)c3ccccc3)CC2)cc1 (stereo not shown) [Compound A26]
4. O=S(=O)(c1ccc(C(F)(F)F)cc1)N1CCc2cc([C@@H]3C[C@H]3NCC3CCNCC3)ccc21 (relative stereo) [Compound A34]
5. COCCC(=O)N1CCc2cc([C@@H]3C[C@H]3NCC3CCNCC3)ccc21 (relative stereo) [Compound A56]

[7.45, 6.39, 6.34, 7.36, 7.57]

###

# ASSAYED SYSTEM: Human recombinant MAOA (Homo sapiens (Human))
# Sequence (P21397 whole entry): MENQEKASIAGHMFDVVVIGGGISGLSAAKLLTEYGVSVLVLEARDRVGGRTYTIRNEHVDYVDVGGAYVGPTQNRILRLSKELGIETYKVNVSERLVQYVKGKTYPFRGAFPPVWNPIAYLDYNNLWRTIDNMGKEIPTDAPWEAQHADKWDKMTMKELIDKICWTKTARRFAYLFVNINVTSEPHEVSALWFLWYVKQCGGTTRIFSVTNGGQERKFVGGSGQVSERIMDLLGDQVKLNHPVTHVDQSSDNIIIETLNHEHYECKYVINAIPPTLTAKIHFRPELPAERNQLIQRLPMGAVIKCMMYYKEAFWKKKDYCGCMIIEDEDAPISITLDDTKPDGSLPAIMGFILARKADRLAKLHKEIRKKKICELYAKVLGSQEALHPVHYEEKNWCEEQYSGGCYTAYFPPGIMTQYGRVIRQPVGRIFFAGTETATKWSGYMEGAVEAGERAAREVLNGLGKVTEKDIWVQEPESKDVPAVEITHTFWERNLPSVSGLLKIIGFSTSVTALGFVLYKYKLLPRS
# PROCEDURE DETAILS: MAOA in vitro activity experiment (MAO-Glo)
What pIC50 was measured for each of the following?
One number for each entry, as −log10 of the molar value.

>>> print(df.to_string())
                                   compound   val
0  O=S(=O)(c1ccccc1)N1CCc2cc([C@@H]3C[C@H]3NCC3CNC3)ccc21 (relative stereo) [Compound A17]  4.79

In the following, a different compound is considered.
# query: pIC50 of entry NC1CCC(CNC2CC2c2ccc3c(c2)CCN3S(=O)(=O)c2ccccc2)CC1 (stereo not drawn) [Compound A18]
4.02
